Biological target: EPHB1 (UniProt P54762)
Sequence (P54762 whole entry, looked up): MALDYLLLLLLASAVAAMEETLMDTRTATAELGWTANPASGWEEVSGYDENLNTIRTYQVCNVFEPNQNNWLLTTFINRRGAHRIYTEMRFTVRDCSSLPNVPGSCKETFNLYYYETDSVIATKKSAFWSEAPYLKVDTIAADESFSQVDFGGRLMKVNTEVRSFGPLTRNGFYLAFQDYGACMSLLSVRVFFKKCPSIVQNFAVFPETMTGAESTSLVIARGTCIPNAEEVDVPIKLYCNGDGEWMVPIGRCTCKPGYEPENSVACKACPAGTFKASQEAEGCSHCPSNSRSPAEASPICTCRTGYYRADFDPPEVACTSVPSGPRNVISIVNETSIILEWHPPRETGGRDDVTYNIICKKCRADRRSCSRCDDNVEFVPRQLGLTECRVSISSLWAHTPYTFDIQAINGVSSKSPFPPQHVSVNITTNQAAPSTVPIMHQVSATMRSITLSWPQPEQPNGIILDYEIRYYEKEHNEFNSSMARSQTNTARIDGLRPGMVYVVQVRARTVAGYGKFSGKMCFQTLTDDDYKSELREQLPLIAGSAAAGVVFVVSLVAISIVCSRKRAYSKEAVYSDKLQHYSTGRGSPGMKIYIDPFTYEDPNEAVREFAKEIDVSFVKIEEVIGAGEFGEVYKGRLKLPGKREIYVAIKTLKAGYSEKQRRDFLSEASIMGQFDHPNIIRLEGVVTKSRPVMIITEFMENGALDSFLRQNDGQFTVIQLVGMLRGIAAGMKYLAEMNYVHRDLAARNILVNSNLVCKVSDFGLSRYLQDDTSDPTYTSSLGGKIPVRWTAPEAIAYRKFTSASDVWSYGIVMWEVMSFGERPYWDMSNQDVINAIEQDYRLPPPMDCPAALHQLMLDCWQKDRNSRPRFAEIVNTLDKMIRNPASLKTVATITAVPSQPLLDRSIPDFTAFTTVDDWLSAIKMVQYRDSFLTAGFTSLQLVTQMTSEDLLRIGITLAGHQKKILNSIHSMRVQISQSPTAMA
Assay: phosphorylation enrichment, bacterial display (enrichment ratio); higher = better substrate or ligand; peptides without Tyr show the background
Reported phosphorylation enrichment values follow for various sequences
Form field (numeric): enter value without unit.

Measured phosphorylation enrichment, RGRSTYFWPRP [GAGE12J_Y9_YF] : 0.875

---

Reported SH2 binding enrichment values follow for various sequences
Target: SHP2-C SH2;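 note: peptide library displayed on the E. coli surface as eCPX fusions, selected cells deep-sequenced, score is each peptide's frequency after selection divided by its frequency in the input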
Experiment: SH2 binding enrichment of the phosphorylated peptide, bacterial display (enrichment ratio); higher = better substrate or ligand; peptides without Tyr show the background
Form field (numeric): enter value without unit.

> print(dat)
                   input.sequence       reported.property  reported
1       LHAAAYRNALA [UQCRC2_Y182]  SH2 binding enrichment     0.682
2   IQVNAYFSPIH [ADSL_Y432_D430N]  SH2 binding enrichment      1.34
3   HEHVGYTTLNR [CHN1_Y148_Y143H]  SH2 binding enrichment      61.4
4         ELPEKYSQNIY [PKP2_Y626]  SH2 binding enrichment     0.555
5  PIPIKYKAMKK [MYD88_Y257_L252P]  SH2 binding enrichment       1.1
6  VAMDDYLKNVV [LRRK2_Y707_M712V]  SH2 binding enrichment     0.648

Measured SH2 binding enrichment, AWVARYIFKRL [LPCAT3_Y348] : 1.1

Measured SH2 binding enrichment, DNLNNYVFQGQ [GRIN2A_Y978] : 0.617

Measured SH2 binding enrichment, FMFKVYSDPQP [FGFR1_Y280_C277Y_YF] : 0.566

Measured SH2 binding enrichment, MSRNLYSGDYY [DDR2_Y736] : 0.612

Measured SH2 binding enrichment, EFITRYIDSLK [PSMA7_Y110_A112D_YF] : 0.713

Measured SH2 binding enrichment, PFTRNYYVQAV [CYBA_Y87_R90Q] : 3.28

Measured SH2 binding enrichment, ANFTEYVATSW [CDKL5_Y171_R175S_YF] : 0.809

Measured SH2 binding enrichment, ATPKGYERDAS [OTC_Y223_P225R] : 0.562

Measured SH2 binding enrichment, SVTCTYSPAHN [TP53_Y126_L130H] : 0.605
